# Lookup of reported cell viability keyed by entry
Test system: Calu-3
Protocol notes: cell viability relative to DMSO; higher = less toxic
Measurement context: 72 h; 100 nM
Write the answer as a number in %, unit excluded.

Worked cases, answers included:
COc1cc2c(cc1OC)-c1cc3ccc(OC)c(OC)c3c[n+]1CC2 [palmatine-chloride] | 100
NCC(=O)Nc1ccc(-n2nc(C(F)(F)F)cc2-c2ccc3c(ccc4ccccc43)c2)cc1 | 98.9
Cn1ccc2cc(NC(=O)Nc3cccnc3)ccc21 | 98.1
c1ccc2c(CC3=NCCN3)cccc2c1 | 109
O=c1[nH]cnc2c([C@@H]3N[C@H](CO)[C@@H](O)[C@H]3O)c[nH]c12 | 97.2

Lab note: measured cell viability of CCC[C@H](NC(=O)/C(C#N)=C/c1cccc(Br)n1)c1ccccc1 was 90.7

Please fill in: cell viability reported for COc1cc(C=O)ccc1O = 109

Quick note, cell viability for CCNC(=O)/C=C/c1cccc(Br)c1 [cinromide] landed at 106

====

Tested on: U2OS
Protocol notes: relative viability EC50 (midpoint between 100% and the lowest measured viability); higher = less toxic
Measurement context: 72 h
molecules and their reported relative viability EC50

Case Cc1c(F)cc(C(=O)NC2CC2)cc1-c1c(F)cn2c(C(C)(C)C)nnc2c1F [AL-8697] , U2OS, relative viability EC50 recorded as > 10 µM

Sample CC12CCC(C(Br)C1=O)C2(C)C (stereo not drawn) [3-bromocamphor] , system: U2OS. Its relative viability EC50 is > 10 µM

# relative viability EC50 measured on U2OS for item CCCNC(=O)Nc1ccc(Oc2ncnc3cc(OC)c(OC)cc23)cc1Cl [KRN-633] = > 10 µM

Form: item CCC(CC)CC1(C(=O)Nc2ccccc2SC(=O)C(C)C)CCCCC1 [dalcetrapib] ; test system U2OS; relative viability EC50: > 10 µM

Param item: CC(=O)[C@@]12O[C@](C)(c3ccccc3)O[C@@H]1C[C@H]1[C@@H]3CCC4=CC(=O)CC[C@]4(C)[C@H]3CC[C@@]12C [algestone-acetophenide] ; param system: U2OS; output relative viability EC50: > 10 µM

Recorded relative viability EC50 for CCN(CC)CCCCNc1ncc2cc(-c3cc(OC)cc(OC)c3)c(NC(=O)NC(C)(C)C)nc2n1 on U2OS was 1.58 µM

The reported U2OS relative viability EC50 of CN(C)CCCCC(=O)Nc1ccc(NC(=S)NC(=O)c2ccc(C(C)(C)C)cc2)cc1 [tenovin-6] is 3.24 µM

====

Let's look at some compounds and their measured cell viability.
System: Calu-3
Protocol notes: cell viability relative to DMSO; higher = less toxic
Measurement context: 72 h; 10 nM
Express the result in % but write the number alone.

For reference, reported cell viability for NCCCC[C@@H]1NC(=O)[C@@H](Cc2c[nH]c3ccccc23)NC(=O)[C@H](c2ccccc2)NC(=O)[C@@H]2C[C@@H](OC(=O)NCCN)CN2C(=O)[C@H](Cc2ccccc2)NC(=O)[C@H](Cc2ccc(OCc3ccccc3)cc2)NC1=O [pasireotide] stands at 101

====

Below: a set of entries, each annotated with reported cell viability.
Tested on: U2OS
Protocol notes: cell viability relative to DMSO; higher = less toxic
Measurement context: 72 h; 100 nM
State the answer as a number, implicitly in %.

Some entries whose results are on file:
CN1CCC[C@@H]1CCO[C@](C)(c1ccccc1)c1ccc(Cl)cc1 | 96.1
N#Cc1ccc(N2N=C3c4ccc(C(=O)O)cc4CC[C@@H]3[C@@H]2C2CCCC2)cc1Cl | 99.4
CNC(=O)COC(=O)NCCC1CCN(c2cccc(C)n2)CC1 | 103
COc1cc(C(=O)N(CC[C@H]2CCCN2C)C/C(C)=C/c2ccccc2F)cc(OC)c1OC (racemic) | 102

API: the following record is the query input.
The compound listed as CCC(CC)Nc1cc(C)nc(Oc2c(C)cc(C)cc2C)c1C has a reported cell viability of 102

====

Some compounds, each annotated with its measured cell viability.
Test system: U2OS
Protocol notes: cell viability relative to DMSO; higher = less toxic
Measurement context: 72 h; 10 nM
Numbers only here, please. The scale is %.

C1=C2CCCN[C@H]2[C@@H]2C[C@H]1[C@H]1CCCCN1C2 | 102
N#C/C(=C\c1ccc(O)c(O)c1)C(=O)Nc1ccccc1 | 102

Field cell viability (U2OS), entry CC(=O)NC1CCSC1=O (centres undefined) : 95.4

Note to self: cell viability of O=C1c2ccccc2CCC1CNCCc1ccc(O)cc1 (centres undefined) with U2OS was 97.3

Param item: Cc1ncc(C)n2nc([C@@H]3C[C@H]3c3nc4c5cccnc5ccn4c3C)nc12 ; param system: U2OS; output cell viability: 95.5

Form field cell viability for item Cc1ccc(OC[C@@H](O)[C@H](C)NC(C)C)c2c1CCC2 (racemic) on U2OS: 98.5

Short answer on U2OS for N[C@@H](CSCCCO)C(=O)O , cell viability: 101

Field cell viability (U2OS), entry COc1cc2ncnc(Nc3ccc(F)c(Cl)c3)c2cc1NC(=O)/C=C/CN1CCCCC1 : 97.3

The measured cell viability that NC[C@H]1O[C@H](O[C@H]2[C@H](O[C@@H]3O[C@H](CO)[C@@H](O)[C@H]3O)[C@@H](O)[C@H](N)C[C@@H]2N)[C@H](N)[C@@H](O)[C@@H]1O [ribostamycin-sulfate] showed for U2OS is 98.8

====

Tested on: Vero E6
Protocol notes: cell viability relative to DMSO; higher = less toxic
Measurement context: 72 h; 100 nM
cell viability for assorted compounds
Your answer should be a plain number; it is taken to be in %.

Example entries and their recorded answers appear below.
CC/C(=C(/c1ccc(/C=C/C(=O)O)cc1)c1ccc2[nH]ncc2c1)c1ccc(F)cc1Cl | 96.4
Cn1c(NC[C@@H](N)Cc2ccccc2)nc(-c2ccncc2)c(-c2ccc3ccccc3c2)c1=O | 99.2
CCCCCCCCCC(=O)O[C@H]1CC[C@H]2[C@@H]3CCC4=CC(=O)CC[C@@H]4[C@H]3CC[C@]12C [Nandrolone decanoate] | 102

Kindly review the next compound as well.
Data point: CC1=C(CCC(=O)O)c2cc3[nH]c(cc4nc(cc5[nH]c(cc1n2)c(C)c5C(C)O)C(C)=C4C(C)O)c(C)c3CCC(=O)O (centres undefined) ; cell viability = 98.8

====

Tested on: Vero E6
Protocol notes: cell viability relative to DMSO; higher = less toxic
Measurement context: 72 h; 10000 nM
Mark each entry t if its cell viability sits below 90%, and f for all others.

Solved entries:
N#Cc1ccc(N2N=C3c4ccc(C(=O)O)cc4CC[C@@H]3[C@@H]2C2CCCC2)cc1Cl | f
CCC[C@H](NC(=O)/C(C#N)=C/c1cccc(Br)n1)c1ccccc1 | t

INPUT: For this compound, is cell viability lower than 90%? C[n+]1c2cc(N)ccc2cc2ccc(N)cc21
OUTPUT: t

INPUT: cell viability under 90%? Item: CCS(=O)(=O)N(C)[C@H]1c2cc(C#N)ccc2OC(C)(C)[C@@H]1O [chromanol-293B-(-)-[3R,4S]]
OUTPUT: f

====

Tested on: U2OS
Protocol notes: cell viability relative to DMSO; higher = less toxic
Measurement context: 72 h; 1000 nM
# cell viability values compiled below
Give the number first and the unit second.

Below, each entry is followed by its recorded cell viability result.
N[C@@H](CSCCCO)C(=O)O [fudosteine] | 102%
Oc1cc(O)c2c(c1)O[C@H](c1ccc(O)c(O)c1)[C@H](O)[C@H]2c1c(O)cc(O)c2c1O[C@H](c1ccc(O)c(O)c1)[C@H](O)C2 [procyanidin-B-2] | 99.5%
Cc1c(F)cc(C(=O)NC2CC2)cc1-c1c(F)cn2c(C(C)(C)C)nnc2c1F [AL-8697] | 93.1%
Cn1c(=O)c(F)c(Nc2ccc(I)cc2F)c2c(=O)n(C[C@@H](O)CO)cnc21 [TAK-733] | 36%
CC[N+]1(C)CCCC(OC(=O)C(O)(c2ccccc2)c2ccccc2)C1 (stereo not drawn) [pipenzolate] | 93.3%

What the record says about CCc1cnn2c(NCc3ccc[n+]([O-])c3)cc(N3CCCC[C@H]3CCO)nc12 [dinaciclib] : cell viability is 4%

Record summary for CCS(=O)(=O)N(C)[C@H]1c2cc(C#N)ccc2OC(C)(C)[C@@H]1O [chromanol-293B-(-)-[3R,4S]] : reported cell viability = 94.3%

Entry under test: CC(C)(O)CC(=O)NCCn1ccc2ncnc(Nc3ccc(Oc4cccc(C(F)(F)F)c4)c(Cl)c3)c21 [TAK-285] . Its cell viability was 95.9%

====

Measured morphology score by item
Tested on: A549-ACE2 infected with SARS-CoV-2
Protocol notes: morphology score (similarity to uninfected cells); higher = more like uninfected cells
Measurement context: 3 µM; 24 h

Nc1ccc(C(=O)Nc2cccc(-c3nc(N4CCOCC4)c4oc5ncccc5c4n3)c2)cn1 | 0.45

Reported morphology score for N#Cc1ccc(N2N=C3c4ccc(C(=O)O)cc4CC[C@@H]3[C@@H]2C2CCCC2)cc1Cl was 0.24

Notebook: C[C@@H]1C[C@@H]([C@H](O)CC2CC(=O)NC(=O)C2)C(=O)[C@@H](C)C1 [cycloheximide] , morphology score read as 0.69

Item: CNC(=O)c1cc(Oc2ccc(NC(=O)Nc3ccc(Cl)c(C(F)(F)F)c3)cc2)ccn1 [sorafenib] | morphology score: -0.27

Recorded result, CN(C)CCCCC(=O)Nc1ccc(NC(=S)NC(=O)c2ccc(C(C)(C)C)cc2)cc1 [tenovin-6] , morphology score: 0.8

Consider Cc1cc(Nc2ncc(Cl)c(Nc3ccccc3S(=O)(=O)C(C)C)n2)c(OC(C)C)cc1C1CCNCC1 [ceritinib] . Its measured morphology score is 0.69

morphology score measured on O=c1oc(-c2ccc(C(F)(F)F)cc2)nn1Cc1cc(Cl)ccc1O = -0.01
